Molecular target: T1, Factor VIIIa (FVIIIa), from recombinant FVIII (Kogenate FS; Bayer healthcare) activated with alpha-thrombin (UniProt P00451 20-2351)
T1 sequence (looked up): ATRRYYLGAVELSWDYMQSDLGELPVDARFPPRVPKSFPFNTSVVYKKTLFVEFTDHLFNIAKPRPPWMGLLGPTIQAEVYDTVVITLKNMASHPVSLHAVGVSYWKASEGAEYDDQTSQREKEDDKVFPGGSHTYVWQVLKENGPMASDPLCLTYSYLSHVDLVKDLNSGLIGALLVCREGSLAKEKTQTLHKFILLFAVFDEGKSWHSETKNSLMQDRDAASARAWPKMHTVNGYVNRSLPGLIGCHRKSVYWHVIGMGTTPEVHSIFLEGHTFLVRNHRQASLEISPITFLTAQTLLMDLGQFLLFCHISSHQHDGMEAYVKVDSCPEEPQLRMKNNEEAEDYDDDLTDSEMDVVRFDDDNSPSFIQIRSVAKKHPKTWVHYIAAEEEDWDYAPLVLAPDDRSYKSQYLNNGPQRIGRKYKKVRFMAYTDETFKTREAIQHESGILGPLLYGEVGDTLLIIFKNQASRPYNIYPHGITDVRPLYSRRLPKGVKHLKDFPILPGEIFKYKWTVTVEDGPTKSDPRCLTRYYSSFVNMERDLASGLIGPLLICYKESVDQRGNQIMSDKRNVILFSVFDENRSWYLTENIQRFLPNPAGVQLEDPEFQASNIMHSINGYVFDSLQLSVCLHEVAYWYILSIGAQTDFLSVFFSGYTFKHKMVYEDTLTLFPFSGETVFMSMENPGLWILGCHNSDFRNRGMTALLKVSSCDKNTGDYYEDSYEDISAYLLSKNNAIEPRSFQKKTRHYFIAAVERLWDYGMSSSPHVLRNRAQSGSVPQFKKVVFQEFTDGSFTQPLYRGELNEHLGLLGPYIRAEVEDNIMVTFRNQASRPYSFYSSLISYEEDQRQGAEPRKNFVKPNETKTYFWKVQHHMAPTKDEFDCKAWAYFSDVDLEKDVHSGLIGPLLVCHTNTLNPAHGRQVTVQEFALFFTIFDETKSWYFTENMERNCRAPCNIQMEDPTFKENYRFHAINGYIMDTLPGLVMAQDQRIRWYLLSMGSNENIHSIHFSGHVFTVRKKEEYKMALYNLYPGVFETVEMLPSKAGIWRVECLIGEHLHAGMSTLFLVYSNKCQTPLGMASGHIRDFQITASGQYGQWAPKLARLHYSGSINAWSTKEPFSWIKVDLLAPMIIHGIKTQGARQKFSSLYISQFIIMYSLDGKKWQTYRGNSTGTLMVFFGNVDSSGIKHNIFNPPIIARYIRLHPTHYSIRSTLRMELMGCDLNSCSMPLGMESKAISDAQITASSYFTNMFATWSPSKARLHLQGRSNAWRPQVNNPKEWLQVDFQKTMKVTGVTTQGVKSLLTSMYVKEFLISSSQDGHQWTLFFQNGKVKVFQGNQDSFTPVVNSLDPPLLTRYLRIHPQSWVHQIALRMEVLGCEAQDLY
Test: ratio of KD-app of Catalyst Biosciences WT FIXa to KD-app of the variant, same Xase assay
value.kind: KD-WT/KD-mut (fold)

FIXa variant R318Y/R338E/T343R/N346Y/R403E/E410N (enzyme, also called R150Y/R170E/T175R/N178Y/R233E/E240N) light: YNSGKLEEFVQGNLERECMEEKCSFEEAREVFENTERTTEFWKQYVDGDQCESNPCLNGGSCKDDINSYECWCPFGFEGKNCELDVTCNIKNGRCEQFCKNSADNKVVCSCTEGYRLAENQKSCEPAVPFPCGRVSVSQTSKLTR heavy: VVGGEDAKPGQFPWQVVLNGKVDAFCGGSIVNEKWIVTAAHCVETGVKITVVAGEHNIEETEHTEQKRNVIRIIPHHNYNAAINKYNHDIALLELDEPLVLNSYVTPICIADKEYTNIFLKFGSGYVSGWGRVFHKGYSALVLQYLRVPLVDRATCLESTKFRIYYNMFCAGFHEGGRDSCQGDSGGPHVTEVEGTSFLTGIISWGEECAMKGKYGIYTKVSEYVNWIKNKTKLT = 6.1
FIXa variant D104N/K106S/K247N/N249S/R318Y/R338E/R403E/E410N (enzyme) light: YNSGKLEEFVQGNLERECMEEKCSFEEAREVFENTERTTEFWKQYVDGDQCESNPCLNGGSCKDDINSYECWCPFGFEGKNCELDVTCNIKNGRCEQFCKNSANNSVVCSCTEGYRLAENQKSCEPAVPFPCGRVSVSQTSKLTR heavy: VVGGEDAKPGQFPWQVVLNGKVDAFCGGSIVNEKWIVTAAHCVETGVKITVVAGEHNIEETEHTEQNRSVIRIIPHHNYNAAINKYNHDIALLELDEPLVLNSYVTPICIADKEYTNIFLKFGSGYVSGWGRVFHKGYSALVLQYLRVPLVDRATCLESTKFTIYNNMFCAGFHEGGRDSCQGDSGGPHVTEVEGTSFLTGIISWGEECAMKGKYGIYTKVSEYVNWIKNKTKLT = 1.1
FIXa variant K247N/N249S/N260S/R318Y/R338E/R403E/E410N (enzyme, also called K82N/N84S/N95S/R150Y/R170E/R233E/E240N) light: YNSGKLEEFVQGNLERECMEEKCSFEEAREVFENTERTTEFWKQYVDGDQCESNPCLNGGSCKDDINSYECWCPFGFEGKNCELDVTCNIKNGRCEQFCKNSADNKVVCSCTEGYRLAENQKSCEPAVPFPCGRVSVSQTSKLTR heavy: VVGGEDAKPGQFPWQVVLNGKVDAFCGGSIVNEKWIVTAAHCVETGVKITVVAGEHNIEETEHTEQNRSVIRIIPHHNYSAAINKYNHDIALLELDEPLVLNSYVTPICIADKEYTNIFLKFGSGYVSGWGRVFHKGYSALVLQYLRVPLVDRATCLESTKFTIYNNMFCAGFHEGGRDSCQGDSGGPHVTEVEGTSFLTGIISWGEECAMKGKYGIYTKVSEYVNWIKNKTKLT = 1.5
FIXa variant A103N/N105S/K247N/N249S/R318Y/R338E/R403E/E410N (enzyme) light: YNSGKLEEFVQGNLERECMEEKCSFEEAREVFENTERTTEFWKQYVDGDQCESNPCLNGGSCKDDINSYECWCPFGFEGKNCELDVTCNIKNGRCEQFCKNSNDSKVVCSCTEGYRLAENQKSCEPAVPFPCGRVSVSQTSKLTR heavy: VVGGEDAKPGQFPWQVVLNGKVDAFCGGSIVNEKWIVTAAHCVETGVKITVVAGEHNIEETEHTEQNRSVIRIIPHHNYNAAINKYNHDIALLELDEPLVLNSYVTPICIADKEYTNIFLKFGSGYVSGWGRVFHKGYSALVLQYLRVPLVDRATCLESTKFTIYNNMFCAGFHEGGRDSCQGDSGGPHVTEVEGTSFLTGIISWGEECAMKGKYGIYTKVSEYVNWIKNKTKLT = 1
